Attribution: patent US10209240B2

System: WA09 hES cells
stated_conditions: human, 72 h
measurement_kind: Teratogenicity Potential (μM) Cell Viability

compound: CNCCC(Oc1ccc(C(F)(F)F)cc1)c1ccccc1 (centres unmarked) [Fluoxetine]
study_target: WA09 hES cells
measured_result: 23 µM
--
compound: O=C1CCC(N2C(=O)c3ccccc3C2=O)C(=O)N1 (centres unmarked) [Thalidomide]
study_target: WA09 hES cells
measured_result: >300 µM
--
compound: CC(C)CN(C[C@@H](O)[C@H](Cc1ccccc1)NC(=O)O[C@H]1CCOC1)S(=O)(=O)c1ccc(N)cc1 [Amprenavir]
study_target: WA09 hES cells
measured_result: 259.5 µM
--
compound: NC(=O)N1c2ccccc2C=Cc2ccccc21 [Carbamazepine]
study_target: WA09 hES cells
measured_result: >300 µM
--
compound: N[C@@H](Cc1cc(I)c(Oc2cc(I)c(O)c(I)c2)c(I)c1)C(=O)O [Levothyroxine]
study_target: WA09 hES cells
measured_result: >300 µM
--
compound: CC1=C(/C=C/C(C)=C/C=C/C(C)=C\C(=O)O)C(C)(C)CCC1 [13-cis Retinoic Acid]
study_target: WA09 hES cells
measured_result: >300 µM
--
compound: CC1=C(/C=C/C(C)=C/C=C/C(C)=C/CO)C(C)(C)CCC1 [Retinol]
study_target: WA09 hES cells
measured_result: 42.8 µM
--
compound: O=C1NC(=O)C(c2ccccc2)(c2ccccc2)N1 [Diphenylhydantoin]
study_target: WA09 hES cells
measured_result: 288.7 µM
--
compound: C[C@H]1[C@H](OC(=O)CCC(=O)O)O[C@@H]2O[C@@]3(C)CC[C@H]4[C@H](C)CC[C@@H]1[C@@]24OO3 [Artesunate]
study_target: WA09 hES cells
measured_result: 0.58 µM
--
compound: NNC(=O)c1ccncc1 [Isoniazid]
study_target: WA09 hES cells
measured_result: >300 µM
--
compound: Nc1nc2c(ncn2COCCO)c(=O)[nH]1 [Acycloguanosine]
study_target: WA09 hES cells
measured_result: >300 µM
